Overview of recorded Ki for various molecules
Biological target: W190/N192 FPR (Homo sapiens, UniProt P21462, R190W)
Assay: biochemical
Type: binding
Settings: Ki (nM ± SEM) for binding of peptides to W190/N192 FPR
Residues, ends and D or L forms follow the SMILES beside them. *: point of attachment. For = O=C*
Give just the number in nM; leave the unit off.

CSCC[C@H](NC=O)C(=O)N[C@@H](Cc1ccc(O)cc1)C(=O)N[C@H](C(=O)N[C@@H](CCCCN)C(=O)N[C@@H](Cc1c[nH]c2ccccc12)C(=O)N1CCC[C@H]1C(=O)N[C@@H](Cc1c[nH]c2ccccc12)C(=O)N[C@@H](Cc1ccc(O)cc1)C(=O)N[C@H](C(=O)N[C@@H](Cc1c[nH]c2ccccc12)C(=O)N[C@@H](CC(C)C)C(=O)O)C(C)C)C(C)C (For-MYVKWPWYVWL-OH)    133

Now for a further molecule.
Ki recorded for this molecule, `CC[C@H](C)[C@H](NC(=O)[C@H](Cc1ccc(O)cc1)NC(=O)[C@@H](NC(=O)[C@@H](N)CCC(=O)O)[C@@H](C)O)C(=O)N[C@@H](CCCCN)C(=O)N[C@@H](Cc1c[nH]c2ccccc12)C(=O)N1CCC[C@H]1C(=O)N[C@@H](Cc1c[nH]c2ccccc12)C(=O)N[C@@H](Cc1c[nH]c2ccccc12)C(=O)N[C@H](C(=O)N[C@@H](Cc1c[nH]c2ccccc12)C(=O)N[C@@H](CC(C)C)C(=O)O)C(C)C` , is 270
